Activity values for the compounds below.
MEASUREMENT_TARGET: Prostaglandin E synthase (Homo sapiens) (UniProt O14684)
Sequence (whole entry): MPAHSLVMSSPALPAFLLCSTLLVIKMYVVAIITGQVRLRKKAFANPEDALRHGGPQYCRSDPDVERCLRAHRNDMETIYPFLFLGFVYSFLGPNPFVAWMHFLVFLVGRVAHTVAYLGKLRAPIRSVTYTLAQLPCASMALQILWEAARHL
METHOD_DESCRIPTION: Inhibition of mPGES1 in IL1beta-stimulated human A549 cell microsomes assessed as residual activity at 10 uM using PGH2 as substrate preincubated for 15 mins followed by substrate addition and measured after 1 min by RP-HPLC analysis relative to control
REPORTED_PROPERTY: Activity (%)

CCOc1ccc(N2CC(c3nc4ccccc4n3CCOc3ccc(Cl)cc3)CC2=O)cc1 (stereo not drawn): 65.3
O=C(C1=C(O)C(=O)N(c2ncc(S(=O)(=O)c3ccc([N+](=O)[O-])cc3)s2)C1c1cccc(Cl)c1)c1ccc(Cl)cc1 (stereo not drawn): 25
Cc1sc2ncn(CC(=O)Nc3ccc(Oc4ccccc4)cc3)c(=O)c2c1-c1ccccc1: 82.6
CC(=O)N[C@H]1[C@H](Oc2ccc(Nc3nc(-c4ccc(Cl)cc4)nc4ccccc34)cc2)O[C@H](CO)[C@@H](O)[C@H]1O: 80.1
CCOc1ccc(C2C(C(=O)c3cc4ccccc4o3)=C(O)C(=O)N2c2nnc(SCc3ccc(Cl)cc3)s2)cc1OC (stereo not drawn): 30.5
CCOC(=O)C1CCCN(c2nc3c(C)cccn3c(=O)c2/C=C(\C#N)C(=O)NCc2ccccc2)C1 (stereo not drawn): 86.8
COc1ccc(C(=O)N/C(=C\c2ccc(-c3cccc(C(F)(F)F)c3)o2)C(=O)NC(C)(C)C)cc1: 88.6
COc1ccc(C(=O)N/C(=C\c2ccc(-c3ccccc3Cl)o2)C(=O)NCCCO)cc1: 72.1
